I'd appreciate it if you could supply MIC values for the items below.
System: Proteus vulgalis OX-19
Assay: MIC against standard strains (Test Example 1)
Format: cell-based
Conditions: Muller-Hinton agar, 37°C overnight
Where a name gives a salt, the structure may show the parent alone.
Write the number in µg/mL without appending the unit.

Quote MIC reported for NC(=O)c1ccc[n+](CC2=C(C(=O)[O-])N3C(=O)[C@@H](NC(=O)/C(=N\O)c4csc(N)n4)[C@H]3SC2)c1 [Compound (1)] please.
0.78

Note MIC for the compound shown: Nc1ccc[n+](CC2=C(C(=O)[O-])N3C(=O)[C@@H](NC(=O)/C(=N\O)c4csc(N)n4)[C@H]3SC2)c1 [Compound (3), hydrochloride]
0.39

Name the recorded MIC of the compound listed here: Nc1nc(/C(=N/O)C(=O)N[C@@H]2C(=O)N3C(C(=O)[O-])=C(C[n+]4ccc(-c5csc(N)n5)cc4)CS[C@H]23)cs1 [Compound (5)]
0.2

Give the reported value of MIC for this record: CC(=O)c1ccc[n+](CC2=C(C(=O)[O-])N3C(=O)[C@@H](NC(=O)/C(=N\O)c4csc(N)n4)[C@H]3SC2)c1 [Compound (2)]
0.39

Recall and state the measured MIC for CO[C@@]1(NC(=O)CSC(F)F)C(=O)N2C(C(=O)O)=C(CSc3nnnn3CCO)CO[C@@H]21 [FMOX, flomoxef, reference compound] .
0.39

Fill in MIC for record NC(=O)Nc1ccc[n+](CC2=C(C(=O)[O-])N3C(=O)[C@@H](NC(=O)/C(=N\O)c4csc(N)n4)[C@H]3SC2)c1 [Compound (4)]
0.78

Annotate the compound CN(C)CCn1nnnc1SCC1=C(C(=O)O)N2C(=O)[C@@H](NC(=O)Cc3csc(N)n3)[C@H]2SC1 [CTM, cefotiam, reference compound] with its measured MIC.
0.39
